# inhibition at 10 µM per record follows
tested system: CDK5/GST-p25 (Homo sapiens, UniProt Q00535)
Construct: The final construct, encoding for full-length human CDK5; made in house; host or cells: Sf21 insect cells (baculovirus co-infection)
Sequence (Q00535 whole entry): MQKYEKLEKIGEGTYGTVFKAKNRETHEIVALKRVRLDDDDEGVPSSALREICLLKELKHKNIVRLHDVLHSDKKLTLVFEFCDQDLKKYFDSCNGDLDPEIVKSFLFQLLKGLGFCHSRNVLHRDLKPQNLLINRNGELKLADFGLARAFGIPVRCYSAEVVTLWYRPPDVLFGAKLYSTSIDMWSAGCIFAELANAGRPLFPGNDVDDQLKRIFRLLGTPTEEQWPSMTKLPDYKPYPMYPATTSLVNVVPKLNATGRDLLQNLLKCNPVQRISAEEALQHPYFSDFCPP
Sequence (Q15078 108-307 partner limits assumed): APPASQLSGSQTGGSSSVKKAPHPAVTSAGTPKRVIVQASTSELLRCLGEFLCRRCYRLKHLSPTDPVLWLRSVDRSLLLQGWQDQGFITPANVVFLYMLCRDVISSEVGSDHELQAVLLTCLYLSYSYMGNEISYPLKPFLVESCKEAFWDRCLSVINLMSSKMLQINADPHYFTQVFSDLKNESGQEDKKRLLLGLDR
experiment notes: Inhibition of CDK5/GST-p25 kinase activity (ELISA with time-resolved fluorescence readout)
Format: biochemical
recorded endpoint: inhibition at 10 µM (%)

- O=C1Nc2ccccc2C1c1nc(NCCc2ccccn2)nc2nn(C3CCCC3)cc12 (stereo not drawn) [Example 242]: 43
- CNc1nc(C2C(=O)Nc3ccccc32)c2cn(C3CCCC3)nc2n1 (stereo not drawn) [Example 154]: 68
- CCNc1nc(C2C(=O)Nc3ccc(C#N)cc32)c2cn(C3CCCC3)nc2n1 (stereo not drawn) [Example 166]: 41
- C[C@H](O)CNc1nc(C2C(=O)Nc3ccc(Cl)cc32)c2cn(C3CCCC3)nc2n1 (stereo partly drawn) [Example 374]: 56
- C[C@@H](O)CNc1nc(C2C(=O)Nc3ccc(Br)cc32)c2cn(C3CCCC3)nc2n1 (stereo partly drawn) [Example 373]: 67
- O=C1Nc2ccc(C(F)(F)F)cc2C1c1nc(NCc2cccnc2)nc2nn(C3CCCC3)cc12 (stereo not drawn) [Example 161]: 68
- C[C@@H](O)CNc1nc(C2C(=O)Nc3ccc(Cl)cc32)c2cn(C3CCCC3)nc2n1 (stereo partly drawn) [Example 375]: 62
- CC(C)Nc1nc(C2C(=O)Nc3ccc(C#N)cc32)c2cn(C3CCCC3)nc2n1 (stereo not drawn) [Example 150]: 76
- C[C@H](O)CNc1nc(C2C(=O)Nc3ccc(Br)cc32)c2cn(C3CCCC3)nc2n1 (stereo partly drawn) [Example 372]: 77
- C=CCNc1nc(C2C(=O)Nc3ccccc32)c2cn(C3CCCC3)nc2n1 (stereo not drawn) [Example 243]: 63
- CCCCCn1cc2c(C3C(=O)Nc4ccc(C#N)cc43)nc(NC)nc2n1 (stereo not drawn) [Example 294]: 73
- CCCCCn1cc2c(C3C(=O)Nc4ccc(C(F)(F)F)cc43)nc(NCCCN3CCOCC3)nc2n1 (stereo not drawn) [Example 290]: 73

----------
tested system: CDK5/GST-p25 (Homo sapiens)
Construct: The final construct, encoding for full-length human CDK5; made in house; host or cells: Sf21 insect cells (baculovirus co-infection)
experiment notes: Inhibition of CDK5/GST-p25 kinase activity (ELISA with time-resolved fluorescence readout)
Format: biochemical
condition parameters: class symbols
recorded endpoint: IC50

- CCOCCn1cc2c(C3C(=O)Nc4ccc(Br)cc43)nc(NCCN(C)C)nc2n1 (centres unmarked) [Example 237]: < 0.3 µM
- CCCCCn1cc2c(C3C(=O)Nc4ccc(C(F)(F)F)cc43)nc(NCCN)nc2n1 (centres unmarked) [Example 288]: 0.3 to 3 µM
- CCOCCn1cc2c(C3C(=O)Nc4ccc(Cl)cc43)nc(NCCc3cccnc3)nc2n1 (centres unmarked) [Example 212]: < 0.3 µM
- Cn1cc2c(C3C(=O)Nc4ccc(Br)cc43)nc(NCCN)nc2n1 (centres unmarked) [Example 303]: < 0.3 µM
- CCOCCn1cc2c(C3C(=O)Nc4ccc(Br)cc43)nc(NC[C@@H](C)O)nc2n1 (some centres unmarked) [Example 239]: < 0.3 µM
- CN1CCN(c2nc(C3C(=O)Nc4ccc(C#N)cc43)c3cn(C4CCCC4)nc3n2)CC1 (centres unmarked) [Example 117]: 3 to 10 µM
- N#Cc1ccc2c(c1)C(c1nc(NCCc3ccccn3)nc3nn(C4CCCC4)cc13)C(=O)N2 (centres unmarked) [Example 125]: > 10 µM
- CCCn1cc2c(C3C(=O)Nc4ccc(C#N)cc43)nc(NCc3ccncc3)nc2n1 (centres unmarked) [Example 186]: < 0.3 µM
- CC(=O)NCCNc1nc(C2C(=O)Nc3ccc(Cl)cc32)c2cn(C3CCCC3)nc2n1 (centres unmarked) [Example 276]: 0.3 to 3 µM
- CC(C)CNc1nc(C2C(=O)Nc3ccccc32)c2cn(C3CCCC3)nc2n1 (centres unmarked) [Example 244]: > 10 µM
- O=C1Nc2ccc(Br)cc2C1c1nc(Cl)nc2nn(C3CCCC3)cc12 (centres unmarked) [Example 182]: > 10 µM
- CC(C)Nc1nc(C2C(=O)Nc3ccccc32)c2cn(C3CCCC3)nc2n1 (centres unmarked) [Example 245]: > 10 µM
- CN(C)CCCNc1nc(C2C(=O)Nc3ccc(C#N)cc32)c2cn(C3CCCC3)nc2n1 (centres unmarked) [Example 138]: 0.3 to 3 µM
- N#Cc1ccc2c(c1)C(c1nc(O)nc3nn(C4CCCC4)cc13)C(=O)N2 (centres unmarked) [Example 120]: > 10 µM
- CCOCCn1cc2c(C3C(=O)Nc4ccc(Cl)cc43)nc(NCCN3CCOCC3)nc2n1 (centres unmarked) [Example 217]: < 0.3 µM
- O=C1Nc2c(F)cc(F)cc2C1c1ncnc2c1cnn2C1CCCC1 (centres unmarked) [Example 61]: > 10 µM
- CCCn1cc2c(C3C(=O)Nc4ccc(S(=O)(=O)N(C)C)cc43)nc(Cl)nc2n1 (centres unmarked) [Example 204]: 0.3 to 3 µM

----------
tested system: His6-GSK-3β (Homo sapiens, UniProt P49841)
Construct: made in house; host or cells: Sf21 insect cells (baculovirus)
Sequence (P49841 2-419): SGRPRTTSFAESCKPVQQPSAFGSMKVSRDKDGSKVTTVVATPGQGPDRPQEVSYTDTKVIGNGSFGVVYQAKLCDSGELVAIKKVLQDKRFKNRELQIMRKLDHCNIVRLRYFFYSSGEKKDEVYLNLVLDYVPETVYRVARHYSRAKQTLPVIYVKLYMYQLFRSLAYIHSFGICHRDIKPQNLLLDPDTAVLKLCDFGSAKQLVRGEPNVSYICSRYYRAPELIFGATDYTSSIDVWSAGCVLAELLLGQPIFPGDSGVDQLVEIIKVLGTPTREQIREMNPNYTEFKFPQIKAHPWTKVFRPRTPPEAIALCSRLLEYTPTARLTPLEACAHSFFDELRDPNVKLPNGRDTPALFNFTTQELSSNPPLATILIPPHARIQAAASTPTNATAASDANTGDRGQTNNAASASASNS
experiment notes: Inhibition of His6-GSK-3β kinase activity (ELISA-based format, time-resolved fluorescence readout)
Format: biochemical
condition parameters: class symbols; read-out: GSK3β IC50
pIC50: −log10 of the molar value.
# pIC50 per record follows
recorded endpoint: pIC50

- CCOCCn1cc2c(C3C(=O)Nc4ccc(Cl)cc43)nc(NC[C@H](C)O)nc2n1 (stereo partly drawn) [Example 219]: > 6.52
- N#Cc1ccc2c(c1)C(c1nc(NCc3ccncc3)nc3c1CCC3)C(=O)N2 (stereo not drawn) [Example 347]: 5.52 to 6.52
- O=C1Nc2ccc(F)cc2C1c1ncnc2c1cnn2C1CCCC1 (stereo not drawn) [Example 65]: < 5.00
- N#Cc1ccc2c(c1)NC(=O)C2c1ncnc2nn(C3CCCC3)cc12 (stereo not drawn) [Example 38]: < 5.00
- O=C1Nc2ccc(Br)cc2C1c1ncnc2nn(C3CCCCC3)cc12 (stereo not drawn) [Example 46]: > 6.52
- CCCn1cc2c(C3C(=O)Nc4ccc(C)cc43)nc(NCCCOC)nc2n1 (stereo not drawn) [Example 310]: 5.52 to 6.52
- O=C1Nc2ccc(Cl)cc2C1c1nc(NCc2ccc(Cl)nc2)nc2c1CCC2 (stereo not drawn) [Example 328]: < 5.00
- CCOCCn1cc2c(C3C(=O)Nc4ccc(Br)cc43)nc(NC[C@H](C)O)nc2n1 (stereo partly drawn) [Example 238]: > 6.52
- CCCn1ncc2c(C3C(=O)Nc4ccc(Cl)cc43)ncnc21 (stereo not drawn) [Example 95]: < 5.00
- CCOCCNc1nc2c(c(C3C(=O)Nc4ccc(Br)cc43)n1)CCC2 (stereo not drawn) [Example 334]: < 5.00
- O=C1Nc2ccc(C(F)(F)F)cc2C1c1ncnc2nn(C3CCCCC3)cc12 (stereo not drawn) [Example 53]: 5.52 to 6.52
- CCCn1cc2c(C3C(=O)Nc4ccc(Br)cc43)nc(NCc3cccnc3)nc2n1 (stereo not drawn) [Example 196]: > 6.52
- O=C1Nc2ccc(Br)cc2C1c1ncnc2c1cnn2C1CCCCC1 (stereo not drawn) [Example 75]: < 5.00
- O=C1Nc2ccc(F)c(F)c2C1c1ncnc2c1cnn2C1CCCC1 (stereo not drawn) [Example 67]: < 5.00
- O=C1Nc2ccc(Br)cc2C1c1nc(NCc2ccncc2)nc2nn(C3CCCC3)cc12 (stereo not drawn) [Example 180]: > 6.52
- CCCn1cc2c(C3C(=O)Nc4ccc(Br)cc43)nc(NC[C@H]3CCCO3)nc2n1 (stereo partly drawn) [Example 366]: > 6.52
- COCCn1cc2c(C3C(=O)Nc4ccc(Br)cc43)nc(NCCC3CCCNC3)nc2n1 (stereo not drawn) [Example 228]: > 6.52
- N#Cc1ccc2c(c1)C(c1nc(NCCc3ccncc3)nc3nn(C4CCCC4)cc13)C(=O)N2 (stereo not drawn) [Example 126]: > 6.52

----------
tested system: His6-GSK-3β (Homo sapiens, UniProt P49841)
Construct: made in house; host or cells: Sf21 insect cells (baculovirus)
experiment notes: Inhibition of His6-GSK-3β kinase activity (ELISA-based format, time-resolved fluorescence readout)
Type: biochemical
condition parameters: class symbols; read-out: GSK3β IC50
pIC50: −log10 of the molar value.
recorded endpoint: pIC50

* O=C1Nc2ccc(Br)cc2C1c1nc(NCc2ccc(Cl)nc2)nc2c1CCC2 (centres unmarked) [Example 338] | < 5.00
* O=C1Nc2ccc(C(F)(F)F)cc2C1c1nc(NCc2ccncc2)nc2nn(C3CCCC3)cc12 (centres unmarked) [Example 246] | > 6.52
* CN(C)CCNc1nc(C2C(=O)Nc3ccc(C#N)cc32)c2cn(C3CCCC3)nc2n1 (centres unmarked) [Example 119] | > 6.52
* CCOCCn1cc2c(C3C(=O)Nc4ccc(Cl)cc43)nc(Cl)nc2n1 (centres unmarked) [Example 211] | < 5.00
* CC(C)Cn1cc2c(C3C(=O)Nc4ccc(Cl)cc43)nc(NCCCN3CCOCC3)nc2n1 (centres unmarked) [Example 271] | > 6.52
* N#Cc1ccc2c(c1)C(c1nc(N3CCN(CCN4CCCC4)CC3)nc3nn(C4CCCC4)cc13)C(=O)N2 (centres unmarked) [Example 127] | > 6.52
* CCCn1cc2c(C3C(=O)Nc4ccc(C#N)cc43)nc(NCc3cccnc3)nc2n1 (centres unmarked) [Example 184] | > 6.52
* O=C1Nc2ccc(C(F)(F)F)cc2C1c1nc(NCCc2cccnc2)nc2nn(C3CCCC3)cc12 (centres unmarked) [Example 160] | > 6.52
* CCCCCn1cc2c(C3C(=O)Nc4ccc(C(F)(F)F)cc43)nc(NCCCN)nc2n1 (centres unmarked) [Example 289] | > 6.52
* Cl.NCCCNc1nc(C2C(=O)Nc3ccc(C(F)(F)F)cc32)c2cn(C3CCCC3)nc2n1 (centres unmarked) [Example 254, hydrochloride salt] | > 6.52
* CCCn1cc2c(C3C(=O)Nc4ccc(C#N)cc43)nc(NCCc3cccnc3)nc2n1 (centres unmarked) [Example 185] | > 6.52
* COCCn1cc2c(C3C(=O)Nc4ccc(Br)cc43)nc(NC[C@H](C)O)nc2n1 (some centres unmarked) [Example 230] | > 6.52
* C=CCNc1nc(C2C(=O)Nc3ccc(C(F)(F)F)cc32)c2cn(C3CCCC3)nc2n1 (centres unmarked) [Example 248] | > 6.52
* O=C1Nc2ccc(Cl)cc2C1c1nc(NCc2ccncc2)nc2c1CCC2 (centres unmarked) [Example 326] | 5.52 to 6.52
* O=C1Nc2ccc(Cl)cc2C1c1nc(NCc2ccccn2)nc2c1CCC2 (centres unmarked) [Example 330] | < 5.00
* C=CCNc1nc(C2C(=O)Nc3ccc(Br)cc32)c2cn(C)nc2n1 (centres unmarked) [Example 301] | > 6.52
* N#Cc1ccc2c(c1)C(c1nc(NCc3cccnc3)nc3nn(C4CCCC4)cc13)C(=O)N2 (centres unmarked) [Example 133] | > 6.52
